The following compounds are shown together with reported % of full length SNAP-25, mES-MNs pre intoxication values.
target: BoNT/A holotoxin (Clostridium botulinum); assay: cell-based; settings: 20 μM
Sequence (P0DPI1 2-448 limits assumed): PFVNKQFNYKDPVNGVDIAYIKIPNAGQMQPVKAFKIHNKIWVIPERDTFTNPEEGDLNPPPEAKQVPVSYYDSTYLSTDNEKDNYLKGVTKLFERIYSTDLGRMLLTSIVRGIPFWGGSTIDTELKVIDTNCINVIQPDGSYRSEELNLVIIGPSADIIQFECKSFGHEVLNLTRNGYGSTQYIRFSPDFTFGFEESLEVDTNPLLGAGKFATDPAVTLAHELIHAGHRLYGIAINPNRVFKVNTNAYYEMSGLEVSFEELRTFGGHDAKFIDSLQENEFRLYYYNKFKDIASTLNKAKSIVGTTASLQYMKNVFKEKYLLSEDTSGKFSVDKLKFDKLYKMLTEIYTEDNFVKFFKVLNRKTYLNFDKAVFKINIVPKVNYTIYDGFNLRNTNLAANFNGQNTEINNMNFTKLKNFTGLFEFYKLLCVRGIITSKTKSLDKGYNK

Here is how some compounds turned out for % of full length SNAP-25, mES-MNs pre intoxication.
compound	observed
CC(=O)O[C@H]1C[C@H]2[C@@H]([C@H](OC(C)=O)C[C@@H]3C[C@H](N)CC[C@@]32C)[C@@H]2CC[C@H]([C@H](C)CCCN(C)CCCCNc3ccnc4ccccc34)[C@@]12C [Compound 15]	70; 69%
N#Cc1ccc(-c2ccc(-c3ccc(CNCCCCCCNc4ccnc5ccccc45)cc3)s2)cc1 [Compound 46]	22; 48%
CC(CCNCC12CC3CC(CC(C3)C1)C2)Nc1c(F)cnc2ccccc12 (centres unmarked) [Compound 105]	24; 23%

Inquiry: Query (compound): N#Cc1ccc(-c2ccc(-c3cccc(CNCCCCCCNc4ccnc5ccccc45)c3)s2)cc1 [Compound 50] ; field requested: % of full length SNAP-25, mES-MNs pre intoxication
Reply text: 46; 71%

Inquiry: Form field: reported % of full length SNAP-25, mES-MNs pre intoxication of CN(CCCNc1ccnc2cc(Cl)ccc12)CC12CC3CC(CC(C3)C1)C2 [Compound 57]
Reply text: 51; 56%

Inquiry: Recorded % of full length SNAP-25, mES-MNs pre intoxication for N#Cc1ccc2scc(-c3ccc(CNCCCCCCNc4ccnc5ccccc45)cc3)c2c1 [Compound 87] , please?
Reply text: 36; 43%

Inquiry: Endpoint output: % of full length SNAP-25, mES-MNs pre intoxication of CC(CCNc1ccnc2cc(Cl)ccc12)NCC12CC3CC(CC(C3)C1)C2 (centres unmarked) [Compound 102] . Value?
Reply text: 29; 30%

Inquiry: If you can, please state the reported % of full length SNAP-25, mES-MNs pre intoxication value of CC(CCCNCc1ccc(-c2csc3ccc(C#N)cc23)cc1)Nc1ccnc2ccccc12 (centres unmarked) [Compound 36] .
Reply text: 34; 53%

Inquiry: Suppose we examine the compound CC(CCNCCC12CC3CC(CC(C3)C1)C2)Nc1c(F)cnc2cc(Cl)ccc12 (centres unmarked) [Compound 103] ; what % of full length SNAP-25, mES-MNs pre intoxication value has been reported?
Reply text: 30; 29%

Inquiry: I am curious: what % of full length SNAP-25, mES-MNs pre intoxication value has been reported for CN(CCCNc1ccnc2ccccc12)CC12CC3CC(CC(C3)C1)C2 [Compound 68] ?
Reply text: 30; 31%

Inquiry: # query: % of full length SNAP-25, mES-MNs pre intoxication of entry N#Cc1ccc(-c2ccc(-c3ccc(CNCCCCNc4ccnc5ccccc45)cc3)s2)cc1 [Compound 101]
Reply text: 18; 39%

Values compiled from paper PMC5833296.
